System: 519858-162-T-J1-PDC complex spheroid growth, % test/control
PROCEDURE_TEXT: Anticancer human tumor 519858-162-T-J1-PDC patient-derived colon adenocarcinoma cell line growth inhibition [Asc]
EXPERIMENTAL_CONTEXT: second compound 3 µM; first compound 0.1 µM; stronger effect = lower value
Record form. Attribute: viability, T/C. Fill in for each entry.
Respond with the bare value in %.

# input Any idea what viability, T/C was measured for O=C(c1ccc(F)c(F)c1Nc1ccc(I)cc1F)N1CC(O)([C@@H]2CCCCN2)C1 + CCN1C(C(=O)NC23CCC(C(=O)O)(CC2)CC3)C(c2cccc(Cl)c2F)C2(C(=O)Nc3cc(Cl)ccc32)C12CCCCC2 ?
# output 65.7

# input Likewise for C=C(F)C(=O)N1CCN(c2nc(OCC3CCCN3C)nc3c2CCN(c2cccc4cccc(Cl)c24)C3)CC1CC#N (stereo not given) + CCN1C(C(=O)NC23CCC(C(=O)O)(CC2)CC3)C(c2cccc(Cl)c2F)C2(C(=O)Nc3cc(Cl)ccc32)C12CCCCC2 ?
# output 81

# input Field entry: COc1c(OCCCN2CCOCC2)ccc2c3n(c(=NC(=O)c4cnc(N)nc4)nc12)CCN3 + CCN1C(C(=O)NC23CCC(C(=O)O)(CC2)CC3)C(c2cccc(Cl)c2F)C2(C(=O)Nc3cc(Cl)ccc32)C12CCCCC2
# output 57.6

# input Try this molecule next: Cn1ncnc1[C@H]1c2n[nH]c(=O)c3cc(F)cc(c23)N[C@@H]1c1ccc(F)cc1 + CCN1C(C(=O)NC23CCC(C(=O)O)(CC2)CC3)C(c2cccc(Cl)c2F)C2(C(=O)Nc3cc(Cl)ccc32)C12CCCCC2
# output 85.1

# input Another: C=CC(=O)N1CCN(c2nc(=O)n(-c3c(C)ccnc3C(C)C)c3nc(-c4c(O)cccc4F)c(F)cc23)C(C)C1 (stereo not given) + CCN1C(C(=O)NC23CCC(C(=O)O)(CC2)CC3)C(c2cccc(Cl)c2F)C2(C(=O)Nc3cc(Cl)ccc32)C12CCCCC2
# output 81.7

# input One more molecule: CCN1CCN(Cc2ccc(Nc3ncc(F)c(-c4cc(F)c5nc(C)n(C(C)C)c5c4)n3)nc2)CC1 + CCN1C(C(=O)NC23CCC(C(=O)O)(CC2)CC3)C(c2cccc(Cl)c2F)C2(C(=O)Nc3cc(Cl)ccc32)C12CCCCC2
# output 89.2

# input What do we get for CNC(C)C(=O)NC1CN(S(=O)(=O)c2cccc(S(=O)(=O)N3CCC4CCC(C(=O)NC(c5ccccc5)c5ccccc5)N4C(=O)C(NC(=O)C(C)NC)C3)c2)CCC2CCC(C(=O)NC(c3ccccc3)c3ccccc3)N2C1=O (stereo not given) + CCN1C(C(=O)NC23CCC(C(=O)O)(CC2)CC3)C(c2cccc(Cl)c2F)C2(C(=O)Nc3cc(Cl)ccc32)C12CCCCC2 ?
# output 93.9

# input // same read-out, input: O=C(c1cc(Cc2n[nH]c(=O)c3ccccc23)ccc1F)N1CCN(C(=O)C2CC2)CC1 + CCN1C(C(=O)NC23CCC(C(=O)O)(CC2)CC3)C(c2cccc(Cl)c2F)C2(C(=O)Nc3cc(Cl)ccc32)C12CCCCC2
# output 89.3

# input Let us now turn to NC1CCC(NC2CC2c2ccccc2)CC1 (stereo not given) + CCN1C(C(=O)NC23CCC(C(=O)O)(CC2)CC3)C(c2cccc(Cl)c2F)C2(C(=O)Nc3cc(Cl)ccc32)C12CCCCC2
# output 89.2

# input What about this molecule? C#Cc1c(F)ccc2cc(O)cc(-c3ncc4c(N5CC6CCC(C5)N6)nc(OCC56CCCN5CC(F)C6)nc4c3F)c12 (stereo not given) + CCN1C(C(=O)NC23CCC(C(=O)O)(CC2)CC3)C(c2cccc(Cl)c2F)C2(C(=O)Nc3cc(Cl)ccc32)C12CCCCC2
# output 60.6

---

System: 519858-162-T-J1-PDC complex spheroid growth, % test/control
PROCEDURE_TEXT: Anticancer human tumor 519858-162-T-J1-PDC cell line growth inhibition [Asc];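 further: seven day drug exposure begun three days after spheroid seeding; 100% = DMSO vehicle wells and lower values mean less viable spheroid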
EXPERIMENTAL_CONTEXT: second compound 1 µM; first compound 0.00949 µM; stronger effect = lower value
REPORTED_PROPERTY: viability, T/C (%)
Give the value, in units of %, as a plain number.

# input Which viability, T/C is listed for NC(=O)C(=Cn1cnc(-c2cc(C(F)(F)F)cc(C(F)(F)F)c2)n1)c1cncnc1 + CNC(C)C(=O)NC1CN(S(=O)(=O)c2cccc(S(=O)(=O)N3CCC4CCC(C(=O)NC(c5ccccc5)c5ccccc5)N4C(=O)C(NC(=O)C(C)NC)C3)c2)CCC2CCC(C(=O)NC(c3ccccc3)c3ccccc3)N2C1=O ?
# output 76.5

# input Then what about the compound Cc1nc(N2CCC3(CC2)COC(C)C3N)c(CO)nc1Sc1ccnc(N)c1Cl (stereo unspecified) + CNC(C)C(=O)NC1CN(S(=O)(=O)c2cccc(S(=O)(=O)N3CCC4CCC(C(=O)NC(c5ccccc5)c5ccccc5)N4C(=O)C(NC(=O)C(C)NC)C3)c2)CCC2CCC(C(=O)NC(c3ccccc3)c3ccccc3)N2C1=O ?
# output 103

# input Please do the same for CCN1C(C(=O)NC23CCC(C(=O)O)(CC2)CC3)C(c2cccc(Cl)c2F)C2(C(=O)Nc3cc(Cl)ccc32)C12CCCCC2 (stereo unspecified) + CNC(C)C(=O)NC1CN(S(=O)(=O)c2cccc(S(=O)(=O)N3CCC4CCC(C(=O)NC(c5ccccc5)c5ccccc5)N4C(=O)C(NC(=O)C(C)NC)C3)c2)CCC2CCC(C(=O)NC(c3ccccc3)c3ccccc3)N2C1=O as well.
# output 78.9

# input CCN1C(C(=O)NC23CCC(C(=O)O)(CC2)CC3)C(c2cccc(Cl)c2F)C2(C(=O)Nc3cc(Cl)ccc32)C12CCCCC2 (stereo unspecified) + Cc1c(S(C)(=O)=O)c(-c2cc(F)cc(N3CCN(c4ccc(NS(=O)(=O)c5ccc(NC(CCN6CCC(C(=O)OCCCP(=O)(O)O)CC6)CSc6ccccc6)c(S(=O)(=O)C(F)(F)F)c5)cc4)CC3)c2)c(-c2ccc(Cl)cc2)n1C(C)C , same question.
# output 67.7

# input Cc1nc(N2CCC3(CC2)COC(C)C3N)c(CO)nc1Sc1ccnc(N)c1Cl (stereo unspecified) + Cc1c(S(C)(=O)=O)c(-c2cc(F)cc(N3CCN(c4ccc(NS(=O)(=O)c5ccc(NC(CCN6CCC(C(=O)OCCCP(=O)(O)O)CC6)CSc6ccccc6)c(S(=O)(=O)C(F)(F)F)c5)cc4)CC3)c2)c(-c2ccc(Cl)cc2)n1C(C)C ?
# output 92.5

# input Same read-out for NC(=O)C(=Cn1cnc(-c2cc(C(F)(F)F)cc(C(F)(F)F)c2)n1)c1cncnc1 + Cc1c(S(C)(=O)=O)c(-c2cc(F)cc(N3CCN(c4ccc(NS(=O)(=O)c5ccc(NC(CCN6CCC(C(=O)OCCCP(=O)(O)O)CC6)CSc6ccccc6)c(S(=O)(=O)C(F)(F)F)c5)cc4)CC3)c2)c(-c2ccc(Cl)cc2)n1C(C)C ?
# output 65

---

Tested on: 519858-162-T-J1-PDC complex spheroid growth, % test/control
PROCEDURE_TEXT: Anticancer human tumor 519858-162-T-J1-PDC cell line growth inhibition [Asc];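 further: seven day drug exposure begun three days after spheroid seeding; 100% = DMSO vehicle wells and lower values mean less viable spheroid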
EXPERIMENTAL_CONTEXT: second compound 1 µM; first compound 0.0949 µM; stronger effect = lower value
REPORTED_PROPERTY: viability, T/C (%)
State just the number; it will be interpreted in %.

# input Please state recorded viability, T/C (tested on 519858-162-T-J1-PDC complex spheroid growth, % test/control) of Cc1nc(N2CCC3(CC2)COC(C)C3N)c(CO)nc1Sc1ccnc(N)c1Cl (stereo not drawn) + CNC(C)C(=O)NC1CN(S(=O)(=O)c2cccc(S(=O)(=O)N3CCC4CCC(C(=O)NC(c5ccccc5)c5ccccc5)N4C(=O)C(NC(=O)C(C)NC)C3)c2)CCC2CCC(C(=O)NC(c3ccccc3)c3ccccc3)N2C1=O
# output 69.4

# input Cool, now CCN1C(C(=O)NC23CCC(C(=O)O)(CC2)CC3)C(c2cccc(Cl)c2F)C2(C(=O)Nc3cc(Cl)ccc32)C12CCCCC2 (stereo not drawn) + CNC(C)C(=O)NC1CN(S(=O)(=O)c2cccc(S(=O)(=O)N3CCC4CCC(C(=O)NC(c5ccccc5)c5ccccc5)N4C(=O)C(NC(=O)C(C)NC)C3)c2)CCC2CCC(C(=O)NC(c3ccccc3)c3ccccc3)N2C1=O
# output 66.1

# input Another: Cc1nc(N2CCC3(CC2)COC(C)C3N)c(CO)nc1Sc1ccnc(N)c1Cl (stereo not drawn) + Cc1c(S(C)(=O)=O)c(-c2cc(F)cc(N3CCN(c4ccc(NS(=O)(=O)c5ccc(NC(CCN6CCC(C(=O)OCCCP(=O)(O)O)CC6)CSc6ccccc6)c(S(=O)(=O)C(F)(F)F)c5)cc4)CC3)c2)c(-c2ccc(Cl)cc2)n1C(C)C
# output 52.5
